- experiment: Bidirectional permeability (A-B, B-A Papp)
- Assay type: in vitro ADME
- condition-details: not told

molecule	Papp B→A
NS(=O)(=O)c1ccc(Nc2ncc3cc4n(c3n2)C2(CCCCC2)C(=O)NN4)cc1 [Compound I]	42 to 68.3 ×10⁻⁶ cm/s

---

- experiment: Salt screen storage at 40° C./75% RH, XRPD form
- Assay type: physicochemical
- condition-details: ca. 24 hours

compound	XRPD form after storage at 40° C./75% RH
CS(=O)(=O)O.NS(=O)(=O)c1ccc(Nc2ncc3cc4n(c3n2)C2(CCCCC2)C(=O)NN4)cc1 [mesylate Pattern 2]	converted to Pattern 1
CS(=O)(=O)O.NS(=O)(=O)c1ccc(Nc2ncc3cc4n(c3n2)C2(CCCCC2)C(=O)NN4)cc1 [mesylate Pattern 4]	converted to Pattern 1
CS(=O)(=O)O.NS(=O)(=O)c1ccc(Nc2ncc3cc4n(c3n2)C2(CCCCC2)C(=O)NN4)cc1 [mesylate Pattern 3]	converted to Pattern 1
